Measured MIC50, listed per entry.
Test system: Klebsiella aerogenes
Test: Antibacterial activity against non-gentamicin-resistant Enterobacter aerogenes clinical isolate after 18 hrs by agar dilution method
Assay type: functional
Measurement Kind: MIC50 (µg/mL)

* CN[C@@H]1[C@@H](O)[C@@H](O[C@@H]2[C@@H](O)[C@H](O[C@@H]3OC(C(C)N)=CC[C@@H]3N)[C@@H](N)C[C@H]2N)OC[C@]1(C)O (some centres undefined) | 0.5
* CCN[C@@H]1C[C@H](N)[C@@H](O[C@@H]2OC(C(C)N)=CC[C@@H]2N)[C@H](O)[C@H]1O[C@H]1OC[C@](C)(O)[C@H](NC)[C@H]1O (some centres undefined) | 0.5
* CCN[C@@H]1C[C@H](N)[C@@H](O[C@H]2OC(CN)=CC[C@H]2N)[C@H](O)[C@H]1O[C@H]1OC[C@](C)(O)[C@H](NC)[C@H]1O | 0.5
* NCC[C@H](O)C(=O)N[C@@H]1C[C@H](N)[C@@H](O[C@H]2O[C@H](CN)[C@@H](O)[C@H](O)[C@H]2O)[C@H](O)[C@H]1O[C@H]1O[C@H](CO)[C@@H](O)[C@H](N)[C@H]1O | 1

* * *

System: Proteus mirabilis
Assay: Antibacterial activity against non-gentamicin-resistant Proteus mirabilis clinical isolate after 18 hrs by agar dilution method
Type: functional
Measurement Kind: MIC90 (µg/mL)

- CCN[C@@H]1C[C@H](N)[C@@H](O[C@H]2OC(CN)=CC[C@H]2N)[C@H](O)[C@H]1O[C@H]1OC[C@](C)(O)[C@H](NC)[C@H]1O: 2
- CN[C@@H]1[C@@H](O)[C@@H](O[C@@H]2[C@@H](O)[C@H](O[C@@H]3OC(C(C)N)=CC[C@@H]3N)[C@@H](N)C[C@H]2N)OC[C@]1(C)O (some centres undefined): 2
- CCN[C@@H]1C[C@H](N)[C@@H](O[C@@H]2OC(C(C)N)=CC[C@@H]2N)[C@H](O)[C@H]1O[C@H]1OC[C@](C)(O)[C@H](NC)[C@H]1O (some centres undefined): 2
- NCC[C@H](O)C(=O)N[C@@H]1C[C@H](N)[C@@H](O[C@H]2O[C@H](CN)[C@@H](O)[C@H](O)[C@H]2O)[C@H](O)[C@H]1O[C@H]1O[C@H](CO)[C@@H](O)[C@H](N)[C@H]1O: 4

* * *

Measured MIC50, listed per entry.
System: Escherichia coli
Assay: Antibacterial activity against gentamicin-resistant Escherichia coli clinical isolate after 18 hrs by agar dilution method
Format: functional
Measurement Kind: MIC50 (µg/mL)

* NCC[C@H](O)C(=O)N[C@@H]1C[C@H](N)[C@@H](O[C@H]2O[C@H](CN)[C@@H](O)[C@H](O)[C@H]2O)[C@H](O)[C@H]1O[C@H]1O[C@H](CO)[C@@H](O)[C@H](N)[C@H]1O | 1
* CCN[C@@H]1C[C@H](N)[C@@H](O[C@H]2OC(CN)=CC[C@H]2N)[C@H](O)[C@H]1O[C@H]1OC[C@](C)(O)[C@H](NC)[C@H]1O | 8
* CN[C@@H]1[C@@H](O)[C@@H](O[C@@H]2[C@@H](O)[C@H](O[C@@H]3OC(C(C)N)=CC[C@@H]3N)[C@@H](N)C[C@H]2N)OC[C@]1(C)O (some centres undefined) | 32
* CCN[C@@H]1C[C@H](N)[C@@H](O[C@@H]2OC(C(C)N)=CC[C@@H]2N)[C@H](O)[C@H]1O[C@H]1OC[C@](C)(O)[C@H](NC)[C@H]1O (some centres undefined) | 8

* * *

Tested on: Escherichia coli
Experiment: Antibacterial activity against gentamicin-resistant Escherichia coli clinical isolate assessed as susceptible isolates after 18 hrs by agar dilution method
Assay type: functional
Measurement Kind: Activity (%)

- CN[C@@H]1[C@@H](O)[C@@H](O[C@@H]2[C@@H](O)[C@H](O[C@@H]3OC(C(C)N)=CC[C@@H]3N)[C@@H](N)C[C@H]2N)OC[C@]1(C)O (some centres undefined): 3.5
- NCC[C@H](O)C(=O)N[C@@H]1C[C@H](N)[C@@H](O[C@H]2O[C@H](CN)[C@@H](O)[C@H](O)[C@H]2O)[C@H](O)[C@H]1O[C@H]1O[C@H](CO)[C@@H](O)[C@H](N)[C@H]1O: 93
- CCN[C@@H]1C[C@H](N)[C@@H](O[C@@H]2OC(C(C)N)=CC[C@@H]2N)[C@H](O)[C@H]1O[C@H]1OC[C@](C)(O)[C@H](NC)[C@H]1O (some centres undefined): 68.4
- CCN[C@@H]1C[C@H](N)[C@@H](O[C@H]2OC(CN)=CC[C@H]2N)[C@H](O)[C@H]1O[C@H]1OC[C@](C)(O)[C@H](NC)[C@H]1O: 66.7

* * *

System: Pseudomonas aeruginosa
Assay: Antibacterial activity against gentamicin-resistant Pseudomonas aeruginosa clinical isolate assessed as susceptible isolates after 18 hrs by agar dilution method
Format: functional
Measurement Kind: Activity (%)

• CN[C@@H]1[C@@H](O)[C@@H](O[C@@H]2[C@@H](O)[C@H](O[C@@H]3OC(C(C)N)=CC[C@@H]3N)[C@@H](N)C[C@H]2N)OC[C@]1(C)O (some centres undefined) = 2.9
• NCC[C@H](O)C(=O)N[C@@H]1C[C@H](N)[C@@H](O[C@H]2O[C@H](CN)[C@@H](O)[C@H](O)[C@H]2O)[C@H](O)[C@H]1O[C@H]1O[C@H](CO)[C@@H](O)[C@H](N)[C@H]1O = 85.3
• CCN[C@@H]1C[C@H](N)[C@@H](O[C@@H]2OC(C(C)N)=CC[C@@H]2N)[C@H](O)[C@H]1O[C@H]1OC[C@](C)(O)[C@H](NC)[C@H]1O (some centres undefined) = 17.6
• CCN[C@@H]1C[C@H](N)[C@@H](O[C@H]2OC(CN)=CC[C@H]2N)[C@H](O)[C@H]1O[C@H]1OC[C@](C)(O)[C@H](NC)[C@H]1O = 2.9

* * *

System: Pseudomonas aeruginosa
Experiment: Antibacterial activity against non-gentamicin-resistant Pseudomonas aeruginosa clinical isolate assessed as susceptible isolates after 18 hrs by agar dilution method
Format: functional
Measured Activity, listed per entry.
Measurement Kind: Activity (%)

• CCN[C@@H]1C[C@H](N)[C@@H](O[C@@H]2OC(C(C)N)=CC[C@@H]2N)[C@H](O)[C@H]1O[C@H]1OC[C@](C)(O)[C@H](NC)[C@H]1O (some centres undefined) = 78.7
• CN[C@@H]1[C@@H](O)[C@@H](O[C@@H]2[C@@H](O)[C@H](O[C@@H]3OC(C(C)N)=CC[C@@H]3N)[C@@H](N)C[C@H]2N)OC[C@]1(C)O (some centres undefined) = 86.9
• CCN[C@@H]1C[C@H](N)[C@@H](O[C@H]2OC(CN)=CC[C@H]2N)[C@H](O)[C@H]1O[C@H]1OC[C@](C)(O)[C@H](NC)[C@H]1O = 63.9
• NCC[C@H](O)C(=O)N[C@@H]1C[C@H](N)[C@@H](O[C@H]2O[C@H](CN)[C@@H](O)[C@H](O)[C@H]2O)[C@H](O)[C@H]1O[C@H]1O[C@H](CO)[C@@H](O)[C@H](N)[C@H]1O = 100

* * *

System: Staphylococcus epidermidis
Assay: Antibacterial activity against non-gentamicin-resistant Staphylococcus epidermidis clinical isolate after 18 hrs by agar dilution method
Type: functional
Measured MIC50, listed per entry.
Measurement Kind: MIC50 (mg/L)

• CCN[C@@H]1C[C@H](N)[C@@H](O[C@@H]2OC(C(C)N)=CC[C@@H]2N)[C@H](O)[C@H]1O[C@H]1OC[C@](C)(O)[C@H](NC)[C@H]1O (some centres undefined) = 0.125
• NCC[C@H](O)C(=O)N[C@@H]1C[C@H](N)[C@@H](O[C@H]2O[C@H](CN)[C@@H](O)[C@H](O)[C@H]2O)[C@H](O)[C@H]1O[C@H]1O[C@H](CO)[C@@H](O)[C@H](N)[C@H]1O = 0.5
• CN[C@@H]1[C@@H](O)[C@@H](O[C@@H]2[C@@H](O)[C@H](O[C@@H]3OC(C(C)N)=CC[C@@H]3N)[C@@H](N)C[C@H]2N)OC[C@]1(C)O (some centres undefined) = 0.5
• CCN[C@@H]1C[C@H](N)[C@@H](O[C@H]2OC(CN)=CC[C@H]2N)[C@H](O)[C@H]1O[C@H]1OC[C@](C)(O)[C@H](NC)[C@H]1O = 0.25

* * *

Test system: Serratia marcescens
Assay: Antibacterial activity against non-gentamicin-resistant Serratia marcescens clinical isolate after 18 hrs by agar dilution method
Assay type: functional
Measurement Kind: MIC90 (µg/mL)

* NCC[C@H](O)C(=O)N[C@@H]1C[C@H](N)[C@@H](O[C@H]2O[C@H](CN)[C@@H](O)[C@H](O)[C@H]2O)[C@H](O)[C@H]1O[C@H]1O[C@H](CO)[C@@H](O)[C@H](N)[C@H]1O [AMIKACIN] | 2
* CN[C@@H]1[C@@H](O)[C@@H](O[C@@H]2[C@@H](O)[C@H](O[C@@H]3OC(C(C)N)=CC[C@@H]3N)[C@@H](N)C[C@H]2N)OC[C@]1(C)O (some centres undefined) [VERDAMICIN] | 0.5
* CCN[C@@H]1C[C@H](N)[C@@H](O[C@@H]2OC(C(C)N)=CC[C@@H]2N)[C@H](O)[C@H]1O[C@H]1OC[C@](C)(O)[C@H](NC)[C@H]1O (some centres undefined) [VERTILMICIN] | 1
* CCN[C@@H]1C[C@H](N)[C@@H](O[C@H]2OC(CN)=CC[C@H]2N)[C@H](O)[C@H]1O[C@H]1OC[C@](C)(O)[C@H](NC)[C@H]1O [NETILMICIN] | 4
